- tested system: Serine/threonine-protein kinase Nek2 (Homo sapiens, UniProt P51955)
- Sequence (P51955 whole entry): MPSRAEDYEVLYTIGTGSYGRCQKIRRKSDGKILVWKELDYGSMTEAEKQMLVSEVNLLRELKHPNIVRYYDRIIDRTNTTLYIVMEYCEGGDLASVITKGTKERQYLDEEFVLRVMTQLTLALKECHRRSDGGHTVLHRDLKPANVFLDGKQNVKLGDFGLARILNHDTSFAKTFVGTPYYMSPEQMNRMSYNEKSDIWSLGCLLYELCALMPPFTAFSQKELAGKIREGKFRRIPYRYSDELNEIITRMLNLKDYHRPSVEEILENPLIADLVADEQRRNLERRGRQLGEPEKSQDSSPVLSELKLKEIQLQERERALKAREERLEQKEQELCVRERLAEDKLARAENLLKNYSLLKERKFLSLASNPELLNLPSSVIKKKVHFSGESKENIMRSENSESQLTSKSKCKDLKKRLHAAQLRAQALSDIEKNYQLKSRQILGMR
pIC50: −log10 of the molar value.
measurement kind: pIC50

The measured pIC50 associated with "CSc1ccccc1Nc1nc(N2CCNCC2)nc2c(NCC3CC3)ncnc12" reads < 4.40

###

- tested system: Serine/threonine-protein kinase pim-2 (Homo sapiens)
- Sequence (Q9P1W9 whole entry): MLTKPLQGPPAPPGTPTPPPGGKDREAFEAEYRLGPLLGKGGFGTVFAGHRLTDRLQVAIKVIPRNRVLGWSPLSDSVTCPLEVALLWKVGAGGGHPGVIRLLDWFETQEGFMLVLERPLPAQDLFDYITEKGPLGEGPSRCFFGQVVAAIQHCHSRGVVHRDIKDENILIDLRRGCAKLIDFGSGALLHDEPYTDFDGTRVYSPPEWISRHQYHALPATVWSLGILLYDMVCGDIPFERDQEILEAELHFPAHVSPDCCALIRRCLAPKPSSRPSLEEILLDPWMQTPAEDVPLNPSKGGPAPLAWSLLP
measurement kind: IC50

Form field, IC50 with Serine/threonine-protein kinase pim-2 (Homo sapiens), item "CSc1ccccc1Nc1nc(N2CCNCC2)nc2c(NCC3CC3)ncnc12" : > 40 µM

###

- tested system: Ketohexokinase (Homo sapiens, UniProt P50053)
- Sequence (P50053 whole entry): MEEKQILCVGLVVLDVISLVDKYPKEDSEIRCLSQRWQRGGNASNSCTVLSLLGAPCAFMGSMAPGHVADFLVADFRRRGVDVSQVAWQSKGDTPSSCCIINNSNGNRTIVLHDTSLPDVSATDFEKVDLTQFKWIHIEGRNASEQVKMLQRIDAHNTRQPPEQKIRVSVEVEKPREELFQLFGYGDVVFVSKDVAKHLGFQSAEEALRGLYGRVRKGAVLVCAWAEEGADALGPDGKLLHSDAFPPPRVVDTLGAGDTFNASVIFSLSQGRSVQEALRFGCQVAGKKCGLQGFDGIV
- method summary: Inhibition of human ketohexokinase isoform C expressed in Escherichia coli BL21 (DE3) cells using D-fructose as substrate after 12 to 15 mins by fluorescence polarization assay
measurement kind: pIC50
Friendly reminder that pIC50 comes from taking -log10 of the concentration in mol/L.

Let me check: "CCN(CC)c1ncnc2c(Nc3ccccc3C)nc(N3CCNCC3)nc12" , system Ketohexokinase (Homo sapiens, UniProt P50053), measured pIC50 is 5.77

Per the reported Ketohexokinase (Homo sapiens, UniProt P50053) data, "CCCNc1ncnc2c(Nc3ccccc3C)nc(N3CCNCC3)nc12" has pIC50 of 6.40

Item: "CSc1ccccc1Nc1nc(N2CCNCC2)nc2c(NCc3nccs3)ncnc12" | System: Ketohexokinase (Homo sapiens, UniProt P50053) | pIC50: 7.80

The compound "CSc1ccccc1Nc1nc(N2CCC(CN)CC2)nc2c(NCC3CC3)ncnc12" , when measured on Ketohexokinase (Homo sapiens, UniProt P50053), yielded pIC50 of 8.00

With Ketohexokinase (Homo sapiens, UniProt P50053) as the test system, "CSc1ccccc1Nc1nc(N2CCC(CN(C)C)CC2)nc2c(NCC3CC3)ncnc12" showed pIC50 of 6.85

Let me check: "FC(F)(F)Sc1ccccc1Nc1nc(N2CCNCC2)nc2c(NCC3CC3)ncnc12" , system Ketohexokinase (Homo sapiens, UniProt P50053), measured pIC50 is 5.52

Ketohexokinase (Homo sapiens, UniProt P50053) assay, compound "Clc1ccccc1Nc1nc(N2CCNCC2)nc2c(NCC3CC3)ncnc12" , recorded pIC50 = 6.27

# pIC50 measured on Ketohexokinase (Homo sapiens, UniProt P50053) for item "CSc1ccccc1Nc1nc(N2CC(CN)C2)nc2c(NCC3CC3)ncnc12" = 7.52

Entry "Cc1ccccc1Nc1nc(N2CCNCC2)nc2c(NCc3ccccc3)ncnc12" under Ketohexokinase (Homo sapiens, UniProt P50053) had pIC50 of 6.40

Form field pIC50 for item "CSc1ccccc1Nc1nc(N2CCNCC2)nc2c(NCC3CCC3)ncnc12" on Ketohexokinase (Homo sapiens, UniProt P50053): 7.74

Known value: Ketohexokinase (Homo sapiens, UniProt P50053) pIC50 of the compound "CSc1ccccc1Nc1nc(N2CCN(C)CC2)nc2c(NCC3CC3)ncnc12" equals 6.96

"Cc1ccccc1Nc1nc(N2CCNCC2)nc2c(NCc3nccs3)ncnc12" on Ketohexokinase (Homo sapiens, UniProt P50053) gives pIC50 = 7.22

Sample "CCCCCCNc1ncnc2c(Nc3ccccc3C)nc(N3CCNCC3)nc12" , system: Ketohexokinase (Homo sapiens, UniProt P50053). Its pIC50 is 5.80

The compound "CC(C)c1ccccc1Nc1nc(N2CCNCC2)nc2c(NCC3CC3)ncnc12" , tested on Ketohexokinase (Homo sapiens, UniProt P50053), showed pIC50 of 5.30

The compound "CSc1ccccc1Nc1nc(N2CCC[C@@H](N)C2)nc2c(NCC3CC3)ncnc12" on Ketohexokinase (Homo sapiens, UniProt P50053): pIC50 was 7.74

Record for "CSc1ccccc1Nc1nc(N2CCNCC2)nc2c(N)ncnc12" under target or system Ketohexokinase (Homo sapiens, UniProt P50053): pIC50 reported as 8.15

###

- tested system: Ketohexokinase (Homo sapiens)
- method summary: Inhibition of human ketohexokinase isoform C expressed in Escherichia coli BL21 (DE3) cells using D-fructose as substrate after 12 to 15 mins by fluorescence polarization assay
Assignment: determine reported IC50 for the given compounds.

// returns IC50 for "CSc1ccc(Nc2nc(N3CCNCC3)nc3c(NCC4CC4)ncnc23)cc1" with Ketohexokinase (Homo sapiens); value = > 9 µM

Observed IC50 on Ketohexokinase (Homo sapiens), entry "Cc1ccccc1Nc1nc(N2CCOCC2)nc2c(NCC3CC3)ncnc12" , equals > 7 µM

Case "c1nc(NCC2CC2)c2nc(N3CCNCC3)nc(NC3CC3)c2n1" , Ketohexokinase (Homo sapiens), IC50 recorded as > 9 µM

With Ketohexokinase (Homo sapiens) as the test system, "c1nc(NCC2CC2)c2nc(N3CCNCC3)nc(NC3CCCCC3)c2n1" showed IC50 of > 9 µM

Reported IC50 (Ketohexokinase (Homo sapiens)) for entry "CS(=O)(=O)c1ccccc1Nc1nc(N2CCNCC2)nc2c(NCC3CC3)ncnc12" is > 9 µM

Reading of IC50 for "CCSc1ccccc1Nc1nc(N2CCNCC2)nc2c(NCC3CC3)ncnc12" with Ketohexokinase (Homo sapiens): > 9 µM
